# Growth Percent per entry
Test system: MCF7
Experiment: NCI in vitro DTP human cell line screen, MCF7
Format: cell-based
Conditions: Breast Cancer, 1.00E−5 Molar
The response must be a number in % with no trailing unit.

// worked examples, Growth Percent included
>  <compound>
Cc1cccc(C)c1Sc1ccc2c(=O)c3ccccc3sc2c1Cl [No. 12]

>  <Growth Percent (%)>
94.01

$$$$
>  <compound>
COc1ccc(CSc2ccc3c(=O)c4ccccc4sc3c2Cl)cc1 [No. 27]

>  <Growth Percent (%)>
101.77

$$$$
>  <compound>
Cc1cc(C)cc(Sc2ccc3c(=O)c4ccccc4sc3c2Cl)c1 [No. 14]

>  <Growth Percent (%)>
94.94

$$$$
>  <compound>
CCCSc1ccc2c(=O)c3ccccc3sc2c1Cl [No. 3]

>  <Growth Percent (%)>
97.13

$$$$

q: Any idea what its Growth Percent is? The compound is O=c1c2ccccc2sc2c(Cl)c(SCc3ccc(Cl)cc3)ccc12 [No. 26]
a: 94.48

###

# Growth Percent per entry
System: M14
Test: NCI in vitro DTP human cell line screen, M14
Format: cell-based
Conditions: Melanoma, 1.00E−5 Molar
The response must be a number in % with no trailing unit.

// worked examples, Growth Percent included
>  <compound>
O=c1c2ccccc2sc2c(Cl)c(Sc3ccc(Cl)cc3)ccc12 [No. 29]

>  <Growth Percent, %>
89.62

$$$$
>  <compound>
O=c1c2ccccc2sc2c(Cl)c(SCc3ccccc3)ccc12 [No. 23]

>  <Growth Percent, %>
102.67

$$$$
>  <compound>
O=c1c2ccccc2sc2c(Cl)c(SCc3ccc(F)cc3)ccc12 [No. 24]

>  <Growth Percent, %>
93.91

$$$$
>  <compound>
COc1cccc(Sc2ccc3c(=O)c4ccccc4sc3c2Cl)c1 [No. 16]

>  <Growth Percent, %>
111.90

$$$$

q: Any idea what its Growth Percent is? The compound is COc1ccc(CSc2ccc3c(=O)c4ccccc4sc3c2Cl)cc1 [No. 27]
a: 99.76

q: Now give it for CCCSc1ccc2c(=O)c3ccccc3sc2c1Cl [No. 3] too.
a: 102.38

q: Now give it for Cc1cccc(C)c1Sc1ccc2c(=O)c3ccccc3sc2c1Cl [No. 12] too.
a: 105.63

q: Now give it for O=c1c2ccccc2sc2c(Cl)c(Sc3ccccc3)ccc12 [No. 6] too.
a: 104.30

q: Now give it for O=c1c2ccccc2sc2c(Cl)c(SCc3ccc(Cl)cc3)ccc12 [No. 26] too.
a: 101.01

q: Now give it for Cc1cc(C)cc(Sc2ccc3c(=O)c4ccccc4sc3c2Cl)c1 [No. 14] too.
a: 107.60

###

Tested on: NCI-H322M
Test: NCI in vitro DTP human cell line screen, NCI-H322M
Type: cell-based
Details: Non-Small Cell Lung Cancer, 1.00E−5 Molar
observed property: Growth Percent (%)
The response must be a number in % with no trailing unit.

// worked examples, Growth Percent included
>  <compound>
CCCSc1ccc2c(=O)c3ccccc3sc2c1Cl [No. 3]

>  <target entity>
NCI-H322M

>  <test result>
73.70

$$$$
>  <compound>
O=c1c2ccccc2sc2c(Cl)c(SCc3ccccc3)ccc12 [No. 23]

>  <target entity>
NCI-H322M

>  <test result>
70.18

$$$$
>  <compound>
Cc1cc(C)cc(Sc2ccc3c(=O)c4ccccc4sc3c2Cl)c1 [No. 14]

>  <target entity>
NCI-H322M

>  <test result>
116.93

$$$$
>  <compound>
O=c1c2ccccc2sc2c(Cl)c(Sc3ccccc3)ccc12 [No. 6]

>  <target entity>
NCI-H322M

>  <test result>
96.11

$$$$
>  <compound>
O=c1c2ccccc2sc2c(Cl)c(SCc3ccc(Cl)cc3)ccc12 [No. 26]

>  <target entity>
NCI-H322M

>  <test result>
101.60

$$$$

Now turn to the next compound.
q: Any idea what its Growth Percent is? The compound is Cc1cccc(C)c1Sc1ccc2c(=O)c3ccccc3sc2c1Cl [No. 12]
a: 113.78

Cited source: patent US8410161B2
